Assay: self-splicing fitness, log relative to wild type (ln ratio); higher = more splicing; Tetrahymena group I intron in knt gene, E. coli kanamycin selection, DiMSum; sequences stand for … in CUCUCU…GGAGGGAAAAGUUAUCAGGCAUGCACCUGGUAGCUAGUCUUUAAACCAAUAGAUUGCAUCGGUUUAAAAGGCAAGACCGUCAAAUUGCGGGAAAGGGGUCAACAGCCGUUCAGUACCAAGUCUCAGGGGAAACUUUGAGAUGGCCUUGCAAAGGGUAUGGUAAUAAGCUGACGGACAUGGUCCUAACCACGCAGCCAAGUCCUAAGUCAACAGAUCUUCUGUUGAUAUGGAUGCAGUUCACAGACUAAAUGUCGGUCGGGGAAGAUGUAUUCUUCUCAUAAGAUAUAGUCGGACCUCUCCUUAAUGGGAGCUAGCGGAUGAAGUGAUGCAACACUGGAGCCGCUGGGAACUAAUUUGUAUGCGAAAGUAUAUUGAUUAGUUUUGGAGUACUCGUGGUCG;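 note: selection with 25 µg/mL kanamycin versus none on LB agar overnight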
Conditions: 30 °C
Returns one of Met or Not met; Met when self-splicing fitness (ln) is >= -2.

Request: Dear colleague, could you confirm whether GGGGAGCAAUAUUACGAGUA has self-splicing fitness (ln) at or above -2?
Result: Not met

Request: # repeat for GUCGAGCAAUAUUACGCGAG
Result: Met

Request: Note, next up: GAAUAGCAAUAUUACGGCCU
Result: Met

Request: Same question for CCCGAGCAAUAUUACGAUGG please.
Result: Not met

Request: How about this sequence: CACCAGCAAUAUUACGAUCA
Result: Not met

Request: And the next one, CGCCAGCAAUAUUACGUUAA ?
Result: Not met

Request: Then this sequence: CCUGAGCAAUAUUACGAUUU
Result: Not met

Request: Now consider AACAAGCAAUAUUACGAUCA and answer again.
Result: Met

Request: Again, but for UUGCAGCAAUAUUACGCUUG
Result: Not met

Request: How about AUAGAGCAAUAUUACGUAUG ?
Result: Not met

Request: Try GUAGAGCAAUAUUACGAACG next.
Result: Not met

Request: Same question for AAAGAGCAAUAUUACGUGAG please.
Result: Not met

Request: Moving on to GACCAGCAAUAUUACGUCUU
Result: Met

Request: Do the same for GCAUAGCAAUAUUACGCUAG please
Result: Not met

Request: // next record CGGCAGCAAUAUUACGACCU
Result: Met

Request: Check AGGCAGCAAUAUUACGCUGU too.
Result: Not met

Request: Field entry: CAAAAGCAAUAUUACGAGAG
Result: Not met

Request: Please give the result for UGUAAGCAAUAUUACGAGCU too.
Result: Met

Request: Same read-out for CGCGAGCAAUAUUACGAUGG ?
Result: Met

Request: Also, AUUGAGCAAUAUUACGUUUA please.
Result: Not met

Request: One more sequence: CUACAGCAAUAUUACGAUGU
Result: Not met

Request: Cool, now UUGAAGCAAUAUUACGGCUG
Result: Met

Request: Check GCCUAGCAAUAUUACGUGUC too.
Result: Met

Request: Do the same for ACUCAGCAAUAUUACGAUAG please
Result: Not met

Request: Now consider GCGUAGCAAUAUUACGUGAC and answer again.
Result: Not met

Request: What about CUCCAGCAAUAUUACGGCUG ?
Result: Not met

Request: Also need UACCAGCAAUAUUACGCAUC , thanks.
Result: Met

Request: How about CUCCAGCAAUAUUACGCGCC ?
Result: Not met

Request: Then what about the sequence CCUCAGCAAUAUUACGGUGU ?
Result: Not met

Request: UAACAGCAAUAUUACGUACC ?
Result: Met
